- Protocol Summary: qHTS assay to identify small molecule agonists of the estrogen related receptor (ERR) signaling pathway from Tox21 library (AID 1224849); note: % is set by controls: 0 for no effect and ±100 for the full control effect; nearly all actives have a fitted effect of over 15% in size
- Condition Info: ERR reporter cell line, ONE-Glo luciferase, 18 h; at 92.4 µM (top of the series) unless noted
Calls of active or inactive are those of the source. Calls come from the whole dose curve.
Overview of reported activity change, positive = activation across a group of molecules:

O=C(c1ccc(O)cc1)c1ccc(O)c(O)c1O = -5.51% (inactive)
O=C(NCCN1CCOCC1)c1ccc(Cl)cc1 = 9.75% [at 42.5 µM] (inactive)

// recorded activity change, positive = activation for CCCCC(CC)COCCO (configuration not stated) : 5.52% (inactive)

// recorded activity change, positive = activation for COc1nccnc1NS(=O)(=O)c1ccc(N)cc1 : -1.96% [at 42.5 µM] (inactive)

// recorded activity change, positive = activation for Cc1ccccc1N=O : 6.56% (inactive)

// recorded activity change, positive = activation for COC(=O)c1ccccc1C(=O)c1ccc(OCCN2CCCCC2)cc1 : 1.12% [at 42.5 µM] (inactive)

// recorded activity change, positive = activation for Nc1ccc([N+](=O)[O-])c(N)c1 : 5.15% (inactive)
